# Test system: Bacillus licheniformis
# Assay remarks: Antibacterial activity against Bacillus licheniformis MW3 after 24 hrs
# Format: functional
# Run conditions: MW3, 24 h
Give measured MIC for each item. Keep answers brief.
Expressed in µg/mL, but write only the number.

Data request, read-out MIC, for C/C=C/C/C=C(/C)C(=O)CC/C(C)=C/C=C(\C)C(=O)c1c(O)cc([C@H](C)CC/C=C/NC(=O)OC)oc1=O
32

Now try C/C=C/C/C=C(/C)[C@@H](CC/C(C)=C/C=C(\C)C(=O)c1c(O)cc([C@H](C)CC/C=C/NC(=O)OC)oc1=O)OC(=O)c1ccccc1 .
64

Data credit: ChEMBL document CHEMBL3632497
